Test system: Human Rhinovirus 16 (HRV16)
Assay: H1-HeLa HRV-CTG EC50, HRV16
Type: cell-based
Conditions: Rhinovirus A, 96 h; H1-HeLa cells, HRV16, MOI 0.25, 4 days, Celltiter-Glo; read-out: EC50 H1-HeLa_HRV16_HRV-CTG 384-well Assay (per Ex. Z)
Readings of pEC50 for the listed compounds
// pEC50: -log10(molar conc.)

{"smiles": "N#Cc1cc(F)cc(CO[C@H](CCCCCCCCCCCCCCCCCCC(F)(F)F)COP(=O)(O)OC[C@@]2(C#N)O[C@@H](c3ccc4c(N)ncnn34)[C@H](O)[C@@H]2O)c1", "pEC50": 7.04}

As a next step, examine the compound that follows.
Exercise: Please give measured pEC50 of the following entry: `N#Cc1cc(F)cc(CO[C@H](COCCCCCCCCCCCCCCCCCC(F)(F)F)COP(=O)(O)OC[C@@]2(C#N)O[C@@H](c3ccc4c(N)ncnn34)[C@H](O)[C@@H]2O)c1`
Solution: 7.47
